# Test system: HCT-116 colon
# experiment_notes: NCI-60 one-dose screen, 48 h (100 = growth as untreated, 0 = no growth, -100 = all killed)
# test_parameters: 10 µM unless noted
# Method: Growth inhibition of the HCT-116 human tumor cell line is measured as a screen for anti-cancer activity. Cells are grown in 96 well plates and exposed to the test compound for 48 hours. Compounds are tested at a single concentration, which is 10^-5 M for most compounds. The reported endpoint is percent growth (GI% or GIPRCNT), where numbers from 0 - 100% represent growth inhibition, and numbers from -100% - 0 represent cell death. For example, a value of 40 represents 60% growth inhibition. […]
The panel holds about 83,000 compounds, 20% with a hit somewhere; the sample as a whole holds those more often.
Returns: string. Value is Met if measured growth is below 30%, and Not met if it is greater than or equal to it.

COc1cc(C(=O)c2cnc(-c3cccc4[nH]ccc34)[nH]2)cc(OC)c1OC	Met
COc1cccc(/C=C2\C=C(c3ccccc3)N(Cc3ccccc3)C2=O)c1	Not met
O=[N+]([O-])c1ccc(Oc2nc(Nc3ccc(O[C@H]4CO[C@H]5[C@@H]4OC[C@@H]5O)c(Cl)c3)ncc2F)c(Cl)c1	Met
CNCCCNc1nc2ccccc2c2c(=O)c3cc(F)ccc3sc12	Met
COc1ccccc1/C=C1\Oc2cc(OCCN3CCC(Cc4ccccc4)CC3)ccc2C1=O	Not met
COC1=C(C)C(=O)c2c(c(CCCl)c3n2CCC3O)C1=O (stereo not given)	Met

Request: Take the compound Cc1cccc2c3c(sc12)C(c1ccc(F)cc1)C(C#N)=C(N)O3 (stereo not given) and say whether its growth is less than 30%.
Response: Met

Request: Take the compound Cc1cc(O)c(C2=NN(c3ccc(S(N)(=O)=O)cc3)C(c3ccccc3O)C2)cc1Cl (stereo not given) and say whether its growth is less than 30%.
Response: Met

Request: Take the compound CCN1C(=O)N(CC)C2Nn3c(s/c(=C4\C(=O)Nc5ccccc54)c3=O)=NC21 (stereo not given) and say whether its growth is less than 30%.
Response: Not met

Request: Take the compound COc1ccc(C2C(N)=NNC2c2cccc(O)c2)cc1 (stereo not given) and say whether its growth is less than 30%.
Response: Not met

Request: Take the compound Cc1cccc2c3c(sc12)C(c1ccc(Cl)cc1)C(C#N)=C(/N=C/c1ccc(Cl)cc1)O3 (stereo not given) and say whether its growth is less than 30%.
Response: Met

Request: Take the compound Cc1cc(C)c(-c2c(N)cc(Br)cc2Br)c(N)c1 and say whether its growth is less than 30%.
Response: Met

Request: Take the compound Fc1cc2c(cc1Cl)N(c1ncnc3ccc(-c4cnc5cnccn45)cc13)CC2 and say whether its growth is less than 30%.
Response: Not met

Request: Take the compound O=C1CSC(c2c(Cl)cccc2Cl)N1c1nc(Cl)cc(=O)[nH]1 (stereo not given) and say whether its growth is less than 30%.
Response: Not met
